TEST SYSTEM: HCV NS5B RNA-dependent RNA polymerase (Hepatitis C virus)
ASSAY TEXT: SPR
SETUP CONDITIONS: 2'-F on all C and U; listing SEQ 4 lacks the 5' G printed in text
EXPERIMENTAL ENDPOINT: pKd
pKd here: minus log base 10 of the concentration, concentration in moles per litre.

# input sequence: GUUGAACGAUUGGUAGUAGAAUAUCGUCAG [RNA aptamer #9-t2] ; wanted: its pKd
8.59

###

TEST SYSTEM: HCV NS5B RNA-dependent RNA polymerase (Hepatitis C virus) (UniProt P26663)
Sequence (P26663 2420-3010): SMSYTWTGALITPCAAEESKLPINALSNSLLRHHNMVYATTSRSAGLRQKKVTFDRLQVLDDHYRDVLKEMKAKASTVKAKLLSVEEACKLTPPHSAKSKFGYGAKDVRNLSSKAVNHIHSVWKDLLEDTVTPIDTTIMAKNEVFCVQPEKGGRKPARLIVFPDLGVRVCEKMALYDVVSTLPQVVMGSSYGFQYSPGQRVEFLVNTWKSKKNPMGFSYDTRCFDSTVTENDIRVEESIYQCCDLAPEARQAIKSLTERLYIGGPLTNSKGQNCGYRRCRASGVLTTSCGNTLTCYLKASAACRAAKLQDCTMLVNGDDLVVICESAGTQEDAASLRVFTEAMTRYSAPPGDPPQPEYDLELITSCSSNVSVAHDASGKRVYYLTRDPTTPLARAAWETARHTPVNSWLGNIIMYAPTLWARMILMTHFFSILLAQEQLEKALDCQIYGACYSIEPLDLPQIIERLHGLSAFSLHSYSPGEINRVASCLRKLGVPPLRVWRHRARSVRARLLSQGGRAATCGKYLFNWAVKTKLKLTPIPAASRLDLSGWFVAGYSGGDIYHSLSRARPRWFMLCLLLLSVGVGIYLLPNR
ASSAY TEXT: EMSA
SETUP CONDITIONS: 2'-F on all C and U; apparent Kd; 4% nondenaturing gel
Below: a set of entries, each annotated with reported pKd.
pKd here: minus log base 10 of the concentration, concentration in moles per litre.

SEQUENCE CONTENT: GGGAGAGCGGAAGCGUGCUGGGCCUUGAACGAUUGGUAGUAGAAUAUCGUCAGUGAACGGCAGUCAUAACCCAGAGGUCGAUGGAUCCU [RNA aptamer #9]
EXPERIMENTAL ENDPOINT: pKd
NUMERIC READOUT: 7.74

# input sequence: GGGAGAGCGGAAGCGUGCUGGGCCGACAGGGUAGCUUACAGCUGCAUGAUCGCUAGAGGGCGAACAUAACCCAGAGGUCGAUGGAUCCCCCC [RNA aptamer #24] ; wanted: its pKd
8.30
